# System: resistant DMS114 cells
# Procedure details: Alamar blue proliferation assay, DMS114 cells resistant to compound A
# Assay type: cell-based
# Condition context: Homo sapiens, DMS-114, 96 h, Resistant cells, 4 days
Assay readout: IC50 (µM)

compound="CNC(=O)c1c(F)cccc1Nc1nc(Nc2cc3c(cc2OC)CCN3C(=O)CN(C)C)nc2[nH]ccc12 [GSK1838705A]" recorded_number=2
